B1: minF1; the commonest letter at each place (parent)
chain: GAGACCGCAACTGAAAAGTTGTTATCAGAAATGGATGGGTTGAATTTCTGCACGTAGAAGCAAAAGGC

Variants of: B1
PROTOCOL_NOTES: fraction ligated after 30 min (ligated reads / total reads); higher = more ligase activity
CONDITION_DETAILS: with F1*subA RNA substrate (template-directed ligation), 42 °C
Use YES when the recorded fraction ligated is no lower than 0.06; use NO when it is lower.

MUTATION_DESCRIPTOR | ASSIGNED_CLASS
T23G A30C | YES
A30C T32C | NO
A29C A30C | YES
T32G T36A | NO
A27T A44T | YES
G34T A44G | NO
T25G G37C | NO
G28T A43T | YES
T25A A31T | NO
T32A G34A | NO
A27G T32C | NO
C26G A27C | NO
A24T T25A | NO
A27C T36A | YES
T25G G33A | NO
A30G A43T | YES
T23C G37T | NO
C26A A35T | NO
T23C T25A | NO
C26A A27C | YES
C26G G34A | YES
T32C G33C | NO
T23G T25A | YES
T23C A27G | YES
G28T G34T | NO
G28A G34A | YES
A27G A35C | NO
T23C G42T | NO
A27C A43T | NO
G33A A43T | YES
A24T | NO
T25A G42T | NO
A30T T32G | NO
A29T A44T | YES
A29T G42C | NO
G37T A43T | NO
G33C A43C | NO
G28T A29T | YES
T25A G37T | NO
A24C A27T | YES
G28T A29G | YES
G28T G37T | NO
T25A A43T | NO
A27T A30G | YES
C26T G34A | YES
T25G A30G | NO
G33A G34T | NO
A29T T36A | NO
T41C | YES
T23C A35T | NO
T32G | NO
A27T G37C | NO
A43T A44G | NO
T25A G42A | NO
A30C G42C | NO
A29C A43G | NO
A27G G34C | NO
A30T T36A | NO
T32G G34C | NO
C26G A30C | NO
A43C A44G | NO
T23G G28T | YES
A29C A44C | YES
A35T A44G | NO
C26A A30T | YES
C26A A43T | NO
T25G A30C | NO
G28C G37T | NO
A31G G33T | YES
A30C G34A | YES
A24G A29C | YES

meta.source: the supplement of paper PMC6755084
